Biological target: T1, Human KLRF2 (human, UniProt D3W0D1 1-207)
T1 construct: also called hKLRF2
T1 sequence: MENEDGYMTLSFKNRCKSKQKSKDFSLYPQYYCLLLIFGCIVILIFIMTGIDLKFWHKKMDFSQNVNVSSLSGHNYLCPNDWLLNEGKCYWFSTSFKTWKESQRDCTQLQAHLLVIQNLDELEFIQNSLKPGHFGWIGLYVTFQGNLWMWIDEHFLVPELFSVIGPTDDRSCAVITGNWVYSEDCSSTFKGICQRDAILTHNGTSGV
Assay: flow, Jurkat, 100 nM Ab
Binary call on MFI normalized to WT with cut-off 1: strictly below means label 1, and equality or higher means label 0.

[
  {
    "binder": "KW1.3.12 (antibody, human IgG1, V domains shown) VH: EVQLVESGGGLVQPGGSLRLSCAASGFTFSSYAMSWVRQAPGKGLEWVSTISGSGGSTYYADSVKGRFTISRDNSRNTLYLQMNSLRAEDTAVYYCARGGLIPSGFDYWGQGTLVTVSS VL: DIQMTQSPSSLSASVGDRVTITCRASQSISSYLNWYQQKPGKAPKLLIYAASSLLSGVPSRFSGSGSGTDFTLTISSLQPEDFATYYCQQTYSAPLTFGQGTKVEIK",
    "assigned_label": "label 0"
  },
  {
    "binder": "KW1.2.1 (antibody, V domains shown) VH: EVQLVESGGGLVQPGGSLRLSCAASGSTFSSYAMSWVRQAPGKGLEWVSTISGSGGSTYYADSVKGRFTISRDNSRNTLYLQMNSLRAEDTAVYYCARGGLIPSGFDYWGQGTLVTVSS VL: DIQMTQSPSSPSASVGDRVTITCRASQSISSYLNWYQQKPGKAPKLLIYAASSLLSGVPSRFSGSGSGTDFTLTISSLQPEDFATYYCQQTYSTPLTFGQGTKVEIK",
    "assigned_label": "label 0"
  },
  {
    "binder": "KW7.3.7 (antibody, V domains shown) VH: EVQLVESGGGLVQPGGSLRLSCAASGFTFSSYAMSWVRQAPGKGLEWVSATSGSGGSTYYADSAKGRFTISRDNSKNTLYLQMNSLRAEDTAVYYCARGGYLPDAFDYWGRGTLVTVSS VL: DIQMTQSPSSLSASVGDRVTITCWASQSISSYLNWYQQEPGKAPKLLIYAASSLQSGVPSRFSGSGSGTDFTLTISSLQPEDFATYYCQQTYSTPLTFGQGTKVEIK",
    "assigned_label": "label 0"
  },
  {
    "binder": "KM12.2.3 (antibody, human IgG1, V domains shown) VH: EVQLVESGGGLVQPGGSLRLSCAASGFTFSSYAMSWIRQAPGKGLEWVSAISGSGGSIYYADSVKGRFTISRDNSKNTLYLQMNSLRAEDTAVYYCARGYSDSYFYGPYYTFDYWGQGTLVTVSS VL: DIQMTQSPSSLSASVGDRVTITCRASQGISSYLNWYQQKPGKAPKLLIYAASSLQSGVSSRFSGSGSGTDFTLTISSLQPEDFATYYCQQSYNTPLTFGQGTKVEIK",
    "assigned_label": "label 0"
  }
]

Next, consider the following binder.
# TODO verify MFI normalized to WT < 1 strictly for this binder: KW9.3.3 (antibody, V domains shown) VH: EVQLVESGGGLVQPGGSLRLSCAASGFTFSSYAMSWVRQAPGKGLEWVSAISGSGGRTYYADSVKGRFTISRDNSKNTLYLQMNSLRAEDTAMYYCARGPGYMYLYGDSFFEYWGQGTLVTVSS VL: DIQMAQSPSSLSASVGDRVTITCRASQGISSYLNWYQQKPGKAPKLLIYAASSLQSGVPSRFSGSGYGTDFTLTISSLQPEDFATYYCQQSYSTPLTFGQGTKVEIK
label 1

// data source = patent US20210122826A1
